System: 677734-321-R-J1-PDC complex spheroid viability;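 also: spheroids exposed to compounds for one week; 100% = vehicle DMSO treated spheroids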
Assay: Anticancer human tumor 677734-321-R-J1-PDC patient-derived soft tissue sarcoma cell line growth inhibition [POLQ]
Details: second compound 10 µM; first compound 0.0316 µM; stronger effect = lower value
Recorded viability, T/C, one value per entry.

Answered cases to consult:
Measured viability, T/C of C=CCn1c(=O)c2cnc(Nc3ccc(N4CCN(C)CC4)cc3)nc2n1-c1cccc(C(C)(C)O)n1 + Cc1cccc(N(C)C(=O)C2C(O)CCN2c2nc(C)cc(C(F)(F)F)c2C#N)c1 : 95.3%

Measured viability, T/C of CC[C@@]1(O)C(=O)OCc2c1cc1n(c2=O)Cc2cc3c(CN(C)C)c(O)ccc3nc2-1 + Nc1ccc(C#CCN(C(=O)Cc2ncc(C(F)(F)F)cc2C(F)(F)F)c2ccc(F)cc2)nn1 : 29.4%

New cases:
Measured viability, T/C of CCc1cc2c(N3CCc4c(cc(Cn5ccnc5)cc4-c4cn(C)nc4C(F)(F)F)C3=O)cc(C)nc2c(OC)n1 + Cc1cccc(N(C)C(=O)C2C(O)CCN2c2nc(C)cc(C(F)(F)F)c2C#N)c1 : 92.5%
